tested on: Mus musculus; experiment: Inhibition of JAK2 in erythropoietin-treated […] mouse assessed as reduction in pSTAT5 level in whole blood at 90 mg/kg, po measured after 1 and 3 hrs; type: functional, organism-based; set-up: dose 90 mg/kg, route oral
REPORTED_ENDPOINT: IC50

| SMILES_NOTATION | TEST_TARGET | REPORTED_ENDPOINT | REPORTED_RESULT |
| --- | --- | --- | --- |
| CC(C)[C@@H](Nc1nc2cc[nH]c(=O)c2c2cnccc12)C(F)(F)F | Mus musculus | IC50 | 2700 nM |

====

test: Clearance in Sprague-Dawley rat at 1 mg/kg, iv; type: ADME, organism-based; design: dose 1 mg/kg, route intravenous; details: in vivo
REPORTED_ENDPOINT: clearance (mL/min/kg)

| SMILES_NOTATION | SCALE_UNIT | REPORTED_RESULT |
| --- | --- | --- |
| CC(C)[C@@H](Nc1nc2cc[nH]c(=O)c2c2cc(F)ccc12)C(F)(F)F | mL/min/kg | 21 |
| CC(C)[C@@H](Nc1nc2cc[nH]c(=O)c2c2cnccc12)C(F)(F)F | mL/min/kg | 68 |

====

Items are presented alongside their recorded pIC50.
target: Tyrosine-protein kinase JAK2 (Homo sapiens); assay: Inhibition of JAK2 expressed in human Du-145 cells; type: cell-based
Sequence (O60674 whole entry): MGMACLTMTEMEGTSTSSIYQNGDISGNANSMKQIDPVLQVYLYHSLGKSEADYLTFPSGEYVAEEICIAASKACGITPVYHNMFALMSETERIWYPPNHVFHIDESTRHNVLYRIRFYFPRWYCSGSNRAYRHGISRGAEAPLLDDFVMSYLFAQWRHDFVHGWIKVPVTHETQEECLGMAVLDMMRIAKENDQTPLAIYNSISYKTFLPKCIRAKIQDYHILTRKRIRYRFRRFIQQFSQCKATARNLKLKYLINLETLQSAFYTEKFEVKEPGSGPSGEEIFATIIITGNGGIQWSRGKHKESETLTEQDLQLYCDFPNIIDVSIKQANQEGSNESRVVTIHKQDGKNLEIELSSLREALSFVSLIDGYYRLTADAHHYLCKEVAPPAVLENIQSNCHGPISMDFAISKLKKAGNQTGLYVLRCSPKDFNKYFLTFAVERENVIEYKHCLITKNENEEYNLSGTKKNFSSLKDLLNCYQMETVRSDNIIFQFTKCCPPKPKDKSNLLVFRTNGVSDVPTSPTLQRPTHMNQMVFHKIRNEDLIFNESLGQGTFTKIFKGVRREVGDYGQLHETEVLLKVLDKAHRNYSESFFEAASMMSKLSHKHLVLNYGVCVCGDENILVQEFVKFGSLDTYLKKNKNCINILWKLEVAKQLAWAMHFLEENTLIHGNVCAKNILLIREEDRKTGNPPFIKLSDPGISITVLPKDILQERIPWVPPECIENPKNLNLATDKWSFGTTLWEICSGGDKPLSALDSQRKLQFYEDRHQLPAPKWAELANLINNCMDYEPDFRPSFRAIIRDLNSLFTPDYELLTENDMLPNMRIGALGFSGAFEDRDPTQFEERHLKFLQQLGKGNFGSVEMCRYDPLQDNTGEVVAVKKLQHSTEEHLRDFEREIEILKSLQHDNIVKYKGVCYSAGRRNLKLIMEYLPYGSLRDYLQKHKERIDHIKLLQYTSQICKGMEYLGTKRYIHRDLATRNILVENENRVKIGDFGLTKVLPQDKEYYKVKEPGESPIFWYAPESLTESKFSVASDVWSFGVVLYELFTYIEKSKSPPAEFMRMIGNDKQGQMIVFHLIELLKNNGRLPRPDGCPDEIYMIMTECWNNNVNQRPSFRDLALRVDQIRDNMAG
pIC50: −log10 of the molar value.

| SMILES_NOTATION | pIC50 |
| --- | --- |
| CC(C)[C@@H](Nc1nc2cc[nH]c(=O)c2c2cnccc12)C(F)(F)F | 7.40 |
| CC(C)[C@@H](Nc1nc2cc[nH]c(=O)c2c2cc(F)ccc12)C(F)(F)F | 7.30 |

====

Items are presented alongside their recorded pIC50.
molecular target: Tyrosine-protein kinase JAK2 (Homo sapiens); experiment: Inhibition of JAK2 in cell-free system
pIC50: −log10 of the molar value.
REPORTED_ENDPOINT: pIC50

| COMPOUND | REPORTED_ENDPOINT | REPORTED_RESULT |
| --- | --- | --- |
| CC(Nc1nc2cc[nH]c(=O)c2cc1C(=O)NCCN(C)C)C(C)(C)C (stereo not drawn) | pIC50 | 5.08 |
| CC(C)[C@@H](Nc1nc2cc[nH]c(=O)c2c2cnccc12)C(F)(F)F | pIC50 | 9.00 |
| O=c1[nH]ccc2nc(NCC3CCS(=O)(=O)C3)c3ccc(F)cc3c12 (stereo not drawn) | pIC50 | 6.29 |
| CC(C)[C@H](Nc1nc2cc[nH]c(=O)c2c2cc(F)ccc12)C(F)(F)F | pIC50 | 7.26 |
| O=c1[nH]ccc2nc(NC3CCC3)c3ccc(F)cc3c12 | pIC50 | 7.12 |
| CC(C)(C)CNc1nc2cc[nH]c(=O)c2cc1-c1ccc(F)cc1 | pIC50 | 4.54 |
| O=c1[nH]ccc2nc(NCc3ccccn3)c3ccc(F)cc3c12 | pIC50 | 5.95 |
| CC(Nc1nc2cc[nH]c(=O)c2c2cc(F)ccc12)C(C)(C)C (stereo not drawn) | pIC50 | 7.59 |
| CC(Nc1nc2cc[nH]c(=O)c2cc1-c1ccccn1)C(C)(C)C (stereo not drawn) | pIC50 | 6.20 |
| CC(Nc1nc2cc[nH]c(=O)c2cc1-c1ccc(F)cc1)c1cc(F)c(Cl)cc1Cl (stereo not drawn) | pIC50 | 4.93 |
| O=c1[nH]ccc2nc(Nc3c(Cl)cccc3Cl)c3ccc(F)cc3c12 | pIC50 | 7.85 |
| O=c1[nH]ccc2nc(NCc3c(Cl)cccc3Cl)c3ccc(F)cc3c12 | pIC50 | 7.28 |
| O=c1[nH]ccc2nc(NCc3ccncc3)c(-c3ccccc3)cc12 | pIC50 | 5.85 |

====

assay: Volume of distribution in Sprague-Dawley rat at 1 mg/kg, iv; type: ADME, organism-based; design: dose 1 mg/kg, route intravenous; settings: in vivo
Items are presented alongside their recorded Vd.

| SMILES_NOTATION | Vd |
| --- | --- |
| CC(C)[C@@H](Nc1nc2cc[nH]c(=O)c2c2cnccc12)C(F)(F)F | 8 L/kg |
| CC(C)[C@@H](Nc1nc2cc[nH]c(=O)c2c2cc(F)ccc12)C(F)(F)F | 6 L/kg |

====

test: Aqueous solubility of the compound at pH 7; type: physicochemical
Items are presented alongside their recorded solubility.
REPORTED_ENDPOINT: solubility (µM)

| SMILES_NOTATION | REPORTED_ENDPOINT | REPORTED_RESULT |
| --- | --- | --- |
| CC(C)[C@@H](Nc1nc2cc[nH]c(=O)c2c2cc(F)ccc12)C(F)(F)F | solubility | 3 |
| CC(C)[C@@H](Nc1nc2cc[nH]c(=O)c2c2cnccc12)C(F)(F)F | solubility | 120 |

====

molecular target: Tyrosine-protein kinase JAK2 (Homo sapiens); assay: Inhibition of JAK2 in cell-free system
pIC50: −log10 of the molar value.

| COMPOUND | TEST_TARGET | pIC50 |
| --- | --- | --- |
| CC(C)Nc1nc2cc[nH]c(=O)c2c2cc(F)ccc12 | Tyrosine-protein kinase JAK2 (Homo sapiens) | 6.86 |
| CC(C)[C@H](C)Nc1nc2cc[nH]c(=O)c2c2cc(F)ccc12 | Tyrosine-protein kinase JAK2 (Homo sapiens) | 7.57 |
| CC(Nc1nc2cc[nH]c(=O)c2cc1-c1nc(-c2ccccc2)no1)C(C)(C)C (stereo unspecified) | Tyrosine-protein kinase JAK2 (Homo sapiens) | 4.94 |
| O=c1[nH]ccc2nc(NC3CC(F)(F)C3)c3ccc(F)cc3c12 | Tyrosine-protein kinase JAK2 (Homo sapiens) | 6.12 |
| CC(C)[C@@H](Nc1nc2cc[nH]c(=O)c2c2cc(F)ccc12)C(F)(F)F | Tyrosine-protein kinase JAK2 (Homo sapiens) | 9.00 |
| O=c1[nH]ccc2nc(Nc3c(F)cc(F)cc3Cl)c3ccc(F)cc3c12 | Tyrosine-protein kinase JAK2 (Homo sapiens) | 8.40 |
| CC(C)(CN)CNc1nc2cc[nH]c(=O)c2c2cc(F)ccc12 | Tyrosine-protein kinase JAK2 (Homo sapiens) | 5.50 |
| CN1CCC(N(c2nc3cc[nH]c(=O)c3c3cc(F)ccc23)C2CC2)CC1 | Tyrosine-protein kinase JAK2 (Homo sapiens) | 6.27 |
| O=c1[nH]ccc2nc(Nc3cccc(F)c3)c3ccc(F)cc3c12 | Tyrosine-protein kinase JAK2 (Homo sapiens) | 5.39 |
| O=c1[nH]ccc2nc(N3CCC(F)(F)C3)c(-c3ccc(F)cc3)cc12 | Tyrosine-protein kinase JAK2 (Homo sapiens) | 5.40 |
| CC(C)(CO)CNc1nc2cc[nH]c(=O)c2c2cc(F)ccc12 | Tyrosine-protein kinase JAK2 (Homo sapiens) | 6.56 |
